Tested on: SRPK2;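 also: KINOMEscan kinase panel screen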
Conditions: concentration: 1 μM,replicates: in singlicate; n = 1
Value kind: %Inh (%)
Give just the numeric value; % need not be written.

Some compounds with recorded %Inh:
- C[C@@H](Oc1cc(-n2cnc3cc(-c4ccncc4)ccc32)sc1C(N)=O)c1ccccc1Cl [GSK479719]: 0
- CCOC(=O)N1CCC(n2cnc(-c3ccc(F)cc3)c2-c2ccnc(N)n2)CC1 [SB-219952]: 0
- CC(=O)c1c(-c2ccncc2)[nH]c(-c2ccncc2)c1C [GW493036]: 16
- O=C(NCC1CC1)c1ccc(-c2cc(C(=O)NC3CC3)ccc2F)cc1 [GW810445]: 0
- COc1cccc(CNC(=O)NC2CCN(c3ccnc(Nc4cc(OC)c(OC)c(OC)c4)n3)C2)c1 (centres unmarked) [GSK1379765]: 0
- O=C(Nc1ccc(Oc2ccc3nc(NC(=O)C4CC4)cn3n2)c(F)c1)c1cccn(-c2ccccc2)c1=O: 16
- N#Cc1cccc(C(=O)NC2CCN(c3ccnc(Nc4ccc(F)cc4)n3)C2)c1 (centres unmarked) [GSK1379708]: 0

State the recorded %Inh for this entry: `Cn1ccc2ncnc(Oc3ccc(NC(=O)Nc4cc(C(C)(C)C)on4)c(Cl)c3)c21`
0

Reference source for all entries: paper PMC5540273
